Reported koff by item:
Biological target: T1, recombinant human HGF (R&D Systems, Catalog No. 294-HGN-025) (human, UniProt P14210 32-728)
T1 construct: Mature HGF is a disulfide-linked heterodimer of alpha and beta chain cut from one precursor; also called rhHGF (R&D Systems); rhHGF
T1 sequence (P14210 32-728 limits assumed): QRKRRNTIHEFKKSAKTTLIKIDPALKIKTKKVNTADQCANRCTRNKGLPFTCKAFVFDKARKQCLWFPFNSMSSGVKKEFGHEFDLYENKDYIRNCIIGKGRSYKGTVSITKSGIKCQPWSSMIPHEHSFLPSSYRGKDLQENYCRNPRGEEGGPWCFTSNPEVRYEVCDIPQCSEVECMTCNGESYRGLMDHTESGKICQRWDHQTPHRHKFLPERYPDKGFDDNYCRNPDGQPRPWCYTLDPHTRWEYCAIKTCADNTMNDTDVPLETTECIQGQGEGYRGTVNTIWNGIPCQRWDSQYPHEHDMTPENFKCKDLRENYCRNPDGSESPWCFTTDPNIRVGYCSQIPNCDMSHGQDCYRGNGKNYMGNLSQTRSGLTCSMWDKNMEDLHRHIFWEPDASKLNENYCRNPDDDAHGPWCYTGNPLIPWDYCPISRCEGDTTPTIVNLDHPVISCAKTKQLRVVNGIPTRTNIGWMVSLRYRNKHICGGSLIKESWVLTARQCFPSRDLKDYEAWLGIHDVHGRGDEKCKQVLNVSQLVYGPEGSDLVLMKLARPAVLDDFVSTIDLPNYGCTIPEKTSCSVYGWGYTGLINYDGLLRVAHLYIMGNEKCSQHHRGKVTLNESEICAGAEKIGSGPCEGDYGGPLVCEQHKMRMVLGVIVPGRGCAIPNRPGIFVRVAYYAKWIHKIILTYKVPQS
Assay: SPR, antibody captured by anti-mouse Ig, HGF injected, 25 C

binder	koff, s⁻¹
anti-hHGF monoclonal antibody 3B6 (antibody, mouse IgG1, kappa, V domains shown, Murine IgG1 kappa from hybridoma) VH: QVQLQQSGAELVRPGSSVKISCKASGYVFSSYWMNWVKQRPGQGLEWIGQIYPGDGDSNYNGNFKGKATLTADKSSSTAYMQLSSLTSEDSAVYFCASQLGLRENYFDYWGQGTTLTVSS VL: DIKMTQSPSSMYASLGERVTITCKASQDIKSYLSWFQQKPGKSPKTLIYRVNRLVDGVPSRFSGSGSGQDSSLTITSLENEDMGIYYCLQYDEFPFTFGGGTKLEIKR	3.9e-05
anti-hHGF monoclonal antibody 1F3 (antibody, mouse IgG1, kappa, V domains shown, Murine IgG1 kappa from hybridoma) VH: EVQLVESGGGLVQSGGSLKLSCAASGFTFSNYFMSWVRQTPEKRLEWVAYISSGGGSTYYPDSVKGRFTISRDNAKNTLYLQMSSLKSEDTAMYYCVRQGDGYYGDYAMDYWGQGTSVTVSS VL: DIQMTQSPASLSVSVGETVTITCRASENIYSNLAWYQQKQGKSPQLLVYDATHLPDGVPSRFSGSGSGTQFSLKINSLQSEDFGSYYCQHFWGTPYTFGGGTRLEIKR	2.6e-05
anti-hHGF monoclonal antibody 1A3 (antibody, mouse IgG1, kappa, V domains shown, Murine IgG1 kappa from hybridoma) VH: EVQLVESGGGLVQPGGSLKLSCAASEFTFSNYYMSWVRQTPEKRLQWVAYISPGGGSSYYPASVKGRFTISRDNAKNTLYLQMSSLKSEDTAMYYCARQGDGYYGDYAMDYWGQGTSVTVSS VL: DIQMTQSPASLSVSVGETVTITCRASENIYSNLAWYQQKQGKSPQLLVYAATNLADGVPSRFSGSGSGTQFSLKINSLQSEDFGTYYCQHFWGTPYTFGGGTKLEIKR	5.2e-05
anti-hHGF monoclonal antibody 3A12 (antibody, mouse IgG1, kappa, V domains shown, Murine IgG1 kappa from hybridoma) VH: EVQLVESGGGLVQPGGSLKISCAASGFTFSNYFMSWVRQTPEKRLEWVAYISSGGGSTYYPDSVKGRFTISRDNAKNTLYLQMNSLKSEDTAMYYCVRQGDGYYGDYAMDYWGQGTSVTVSS VL: DIQMTQSPASLSVSVGETVTITCRASENIYINLAWYQQKQGKSPQLLVHAATKLADGVPSRFSGSGSGTQYSLKINSLQSEDFGSYYCQHFWGTPYTFGGGTKLEIKR	0.00016
